Recorded values, source BigSolDB 2.1.

Settings: in NMP, 322.89 K
measured-metric: solubility (mole fraction)
Respond using a number only.

Query: solubility (mole fraction); subject: COC(=O)c1ccc2cc(C(=O)OC)ccc2c1
0.00803

====

Conditions: in DMAc, 342.39 K
measured-metric: solubility (mole fraction)

Which solubility (mole fraction) is listed for COC(=O)c1ccc2cc(C(=O)OC)ccc2c1 ?
0.0202

====

Conditions: in DMAc, 381.71 K
measured-metric: solubility (mole fraction)
The answer should be written as a number, with no unit following it.

Query: solubility (mole fraction); subject: COC(=O)c1ccc2cc(C(=O)OC)ccc2c1
0.0814

====

Details: in acetic acid, 329.15 K
measured-metric: solubility (mole fraction)

I would be grateful if you could share the reported solubility (mole fraction) for COC(=O)c1ccc2cc(C(=O)OC)ccc2c1 .
0.00381
